# Test system: MCF7
# assay_protocol: Antiproliferative activity against human MCF7 cells after 48 hrs by MTT assay
# Format: functional, cell-based
# cond: MCF7, 48 h
# pIC50 annotations
// pIC50: -log10(molar conc.)

{"columns": ["structure", "pIC50"],
 "data": [
  ["COc1ccc(OCCN2CCN(c3cc(=O)oc4ccccc34)CC2)cc1", 4.62]
]}

Problem: Specify measured pIC50 for O=[N+]([O-])c1cnc2ccc(Br)cc2c1-n1cc(COc2ccccc2)nn1 .
Solution: 5.11

---

# Tested on: SW480
# assay_protocol: Antiproliferative activity against human SW480 cells after 48 hrs by MTT assay
# Format: functional, cell-based
# cond: SW480, 48 h
# IC50 annotations
Just the number please, in µM, no unit attached.

Consider the reported IC50 for these compounds:
{"columns": ["structure", "IC50 [µM]"],
 "data": [
  ["O=c1cc(-n2cc(CNc3ccccc3)nn2)c2cc(Br)ccc2o1", 18.4],
  ["O=c1cc(-n2cc(COc3ccccc3Br)nn2)c2cc(Br)ccc2o1", 20.1]
]}

Here's the next entry for you.
Problem: Specify measured IC50 for O=c1cc(-n2cc(COc3ccc(C(F)(F)F)cc3)nn2)c2cc(Br)ccc2o1 .
Solution: 3.09

---

# pIC50 annotations
# Tested on: MCF7
# assay_protocol: Antiproliferative activity against human MCF7 cells after 48 hrs by MTT assay
# Format: functional, cell-based
# cond: MCF7, 48 h
// pIC50: -log10(molar conc.)

Consider the reported pIC50 for these compounds:
{"columns": ["structure", "meas_value"],
 "data": [
  ["COC(=O)c1ccccc1OCc1cn(-c2cc(=O)oc3ccc(Br)cc23)nn1", 4.47],
  ["O=c1cc(-n2cc(COc3cccnc3)nn2)c2cc(Br)ccc2o1", 4.40],
  ["O=c1cc(-n2cc(COc3ccnc4ccc(Br)cc34)nn2)c2cc(Br)ccc2o1", 4.38],
  ["O=c1cc(-n2cc(COc3ccc(C(F)(F)F)cc3)nn2)c2cc(Br)ccc2o1", 4.94],
  ["Nc1ccc(OCc2cn(-c3cc(=O)oc4ccc(Br)cc34)nn2)cc1", 5.69],
  ["COC(=O)c1ccc(OCc2cn(-c3cc(=O)oc4ccc(Br)cc34)nn2)cc1", 5.50]
]}

Here's the next entry for you.
Problem: Recall the reported pIC50 of COc1ccc2oc(=O)cc(-n3cc(COc4ccc(F)cc4)nn3)c2c1 on MCF7 and write it down.
Solution: 5.07

---

# System: MCF7
# assay_protocol: Antiproliferative activity against human MCF7 cells after 48 hrs by MTT assay
# Assay type: functional, cell-based
# cond: MCF7, 48 h
reported_property: pIC50
// pIC50: -log10(molar conc.)

Consider the reported pIC50 for these molecules:
{"columns": ["molecule", "meas_value"],
 "data": [
  ["O=c1cc(-n2cc(COc3ccc(Br)cc3)nn2)c2cc(Br)ccc2o1", 5.72],
  ["CCOC(=O)c1ccc(OCc2cn(-c3c([N+](=O)[O-])cnc4ccc(Br)cc34)nn2)cc1", 4.86],
  ["COc1cccc2c1C(=O)c1c(O)c3c(c(O)c1C2=O)C[C@@](O)(C(=O)CO)C[C@@H]3O[C@H]1C[C@H](N)[C@H](O)[C@H](C)O1 [DOXORUBICIN]", 5.45],
  ["O=c1cc(-n2cc(COc3ccc(F)cc3)nn2)c2ccccc2o1", 5.23],
  ["O=c1cc(-n2cc(CSc3ccccc3)nn2)c2cc(Br)ccc2o1", 4.43],
  ["O=c1cc(-n2cc(-c3ccccc3)nn2)c2cc(Br)ccc2o1", 5.02]
]}

Problem: Specify measured pIC50 for O=c1cc(-n2cc(COc3ccccc3Br)nn2)c2cc(Br)ccc2o1 .
Solution: 4.54
